Values were extracted from patent US11129835B2.

- measured.target: Pin1 (Homo sapiens, UniProt Q13526)
- Sequence (Q13526 whole entry): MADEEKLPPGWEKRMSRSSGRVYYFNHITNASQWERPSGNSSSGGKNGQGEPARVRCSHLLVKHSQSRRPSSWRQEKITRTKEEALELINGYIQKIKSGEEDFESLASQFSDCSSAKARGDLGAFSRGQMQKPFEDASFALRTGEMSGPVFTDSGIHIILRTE
- experimental.details: Pin1 fluorescence polarization competition assay, primary qHTS (HiFluor-488 / Alexa488 probe);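 further: Pin1 protein with fluorescent peptide probe, compound displacement read by fluorescence polarization, percent inhibition derived from corrected polarization values, concentration-response curves in 1536-well format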
- measurement.conditions: Alexa488 Primary Potency, primary qHTS
pIC50: −log10 of the molar value.
readout.name: pIC50

Cc1cccc(N(Cc2cc(=O)[nH]c3ccccc23)C(=O)CCl)c1 [Compound 10] : 4.65
O=C(NC(Cc1ccccc1)C(=O)O)/C(=C\c1ccco1)NC(=O)c1ccccc1 (stereo not drawn) [Compound 35] : 4.42

P: O=C1OC(/C(=C\Nc2cc(Cl)ccc2O)[N+](=O)[O-])c2ccccc21 (stereo not drawn) [Compound 12]
Q: CCCCCC(=O)Nc1cc(S(=O)(=O)O)cc2cc(S(=O)(=O)O)cc(O)c12 [Compound 16]
Sort P and Q by pIC50 descending and give the first. Answer by stating the label of the chosen item.
P
(P: 4.82, Q: 4.12)

a: O=C(O)c1[nH]c2ccccc2c1C(c1cc(Cl)cc([N+](=O)[O-])c1O)c1c(C(=O)O)[nH]c2ccccc12 [Compound 44]
b: O=C(c1cccs1)c1no[n+]([O-])c1C(=O)c1cccs1 [Compound 28]
Of a and b , which shows the smaller pIC50 value? Answer by stating the label of the chosen item.
a
